assayProcedure: water solubility
Assay type: physicochemical
conditions: water
experimentalReadout: solubility (mg/mL)
Numbers only, in mg/mL.

**Query** Tell me solubility reported for CCCCCCCNC(=O)Oc1ccc2c(c1)C1(C)CCN(C)C1N2C (stereo not shown) [Example 1]
**Result** 700

----------
assayProcedure: toxicity in the rat (LD50, oral)
conditions: in vivo
experimentalReadout: LD50 (mg/kg)
Give bare numbers, in mg/kg.

| compound | units | LD50 |
| --- | --- | --- |
| CCCCNC(=O)Oc1ccc2c(c1)C1(C)CCN(C)C1N2C (centres unmarked) | mg/kg | 6 |

Next compound, LD50 to be filled in.
**Query** Tell me LD50 reported for CCCCCCCCCNC(=O)Oc1ccc2c(c1)C1(C)CCN(C)C1N2C (centres unmarked)
**Result** 50

----------
assayProcedure: in vivo
conditions: rat, po
experimentalReadout: LD50 (mg/kg)
Give bare numbers, in mg/kg.

**Query** Tell me LD50 reported for CCCCCCCNC(=O)Oc1ccc2c(c1)C1(C)CCN(C)C1N2C (stereo not shown) [*]
**Result** 20

Origin of values: patent US4978673A
